Measured pIC50, listed per entry for reference.
molecular target: wild-type un-phosphorylated FGFR4 (Homo sapiens); experiment: FGFR Enzymatic Assay (FRET peptide phosphorylation), FGFR4
Sequence (P22455 22-802): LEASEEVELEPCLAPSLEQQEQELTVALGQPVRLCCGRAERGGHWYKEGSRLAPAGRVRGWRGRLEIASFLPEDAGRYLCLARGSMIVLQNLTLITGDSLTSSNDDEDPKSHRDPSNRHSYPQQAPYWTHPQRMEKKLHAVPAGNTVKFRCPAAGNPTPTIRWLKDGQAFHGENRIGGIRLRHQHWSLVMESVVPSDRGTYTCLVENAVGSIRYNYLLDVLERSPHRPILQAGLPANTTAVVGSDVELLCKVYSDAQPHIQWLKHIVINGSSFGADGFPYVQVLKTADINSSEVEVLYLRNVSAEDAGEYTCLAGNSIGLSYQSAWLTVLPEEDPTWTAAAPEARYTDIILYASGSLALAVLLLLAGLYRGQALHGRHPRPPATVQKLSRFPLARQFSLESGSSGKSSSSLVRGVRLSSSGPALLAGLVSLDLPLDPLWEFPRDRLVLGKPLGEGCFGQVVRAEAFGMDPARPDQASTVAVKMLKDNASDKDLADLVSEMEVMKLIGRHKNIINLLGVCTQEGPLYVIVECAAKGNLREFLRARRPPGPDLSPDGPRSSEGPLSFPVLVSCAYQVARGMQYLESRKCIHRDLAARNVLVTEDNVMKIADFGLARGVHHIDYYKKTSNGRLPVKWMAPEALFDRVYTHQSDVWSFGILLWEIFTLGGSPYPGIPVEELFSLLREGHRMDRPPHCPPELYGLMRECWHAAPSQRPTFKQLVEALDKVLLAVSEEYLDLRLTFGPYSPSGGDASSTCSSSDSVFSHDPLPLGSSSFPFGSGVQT
pIC50: −log10 of the molar value.
measured property: pIC50

INSERT INTO results (molecule, measured_property, readout_value) VALUES
  ('COc1cc2[nH]nc(-c3cnn([C@H]4CCN(C(=O)[C@@H](C)O)C4)c3)c2nc1-c1cccc2c1CCC2 [Example 132]', 'pIC50', '7.00 to 7.40'),
  ('COc1cc2[nH]nc(-c3cnn(C4CN(C(=O)[C@H](C)N(C)C)C4)c3)c2nc1-c1cccc2c1CCC2 [Example 118]', 'pIC50', '7.00 to 7.40'),
  ('COc1cc2[nH]nc(-c3cnn(C4CN(C(=O)CCN(C)C)C4)c3)c2nc1-c1cccc2c1CCC2 [Example 117]', 'pIC50', '7.00 to 7.40'),
  ('COc1cc2[nH]nc(-c3ccc(C4CN(C(=O)C5CCCO5)C4)nc3)c2nc1-c1cccc2c1CCC2 (centres unmarked) [Example 172]', 'pIC50', '7.00 to 7.40'),
  ('COc1cc2[nH]nc(-c3cnn(Cc4ccccn4)c3)c2nc1-c1cccc(C)c1C [Example 66]', 'pIC50', '< 7.00'),
  ('COc1cc2[nH]nc(-c3cnn(CCO)c3)c2nc1-c1cccc2c1CCC2 [Example 31]', 'pIC50', '7.00 to 7.40'),
  ('COc1cc2[nH]nc(-c3ccc(OC4CCOCC4)nc3)c2nc1-c1cccc2c1CC(O)C2 (centres unmarked) [Example 96]', 'pIC50', '< 7.00'),
  ('COc1cc2[nH]nc(-c3cnn(C)c3)c2nc1-c1cccc2c1OCC2 [Example 4]', 'pIC50', '< 7.00');
